Every entry's value here was drawn from patent US20040110826A1.

Assign inhibition at 0.1 µM to each entry below.
- measured.target: α2C-adrenoceptor (Homo sapiens)
- Sequence (P18825 1-462): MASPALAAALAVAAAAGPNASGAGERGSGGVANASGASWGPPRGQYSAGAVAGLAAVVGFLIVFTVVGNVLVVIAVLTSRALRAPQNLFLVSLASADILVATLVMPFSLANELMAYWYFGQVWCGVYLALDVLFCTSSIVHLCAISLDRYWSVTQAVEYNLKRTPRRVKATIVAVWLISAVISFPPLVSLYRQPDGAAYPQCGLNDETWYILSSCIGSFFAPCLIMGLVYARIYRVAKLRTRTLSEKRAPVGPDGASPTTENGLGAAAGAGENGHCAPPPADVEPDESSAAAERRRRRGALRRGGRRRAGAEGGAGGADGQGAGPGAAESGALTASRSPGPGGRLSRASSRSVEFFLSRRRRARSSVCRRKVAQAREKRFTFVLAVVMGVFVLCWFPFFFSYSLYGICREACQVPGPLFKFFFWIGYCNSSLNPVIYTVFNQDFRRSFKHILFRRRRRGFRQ
- test.method.notes: α2c-Adrenoceptor binding test (3H-MK-912 binding, HepG2 cell membrane fraction)
- Parameters: the membrane fraction of the cultured cells was used; endogenous in cells; host or cells: HepG2 (human hepatoma) cell membrane fraction
- measurement.parameters: 0.5 h, test compound 10^−7 mol/l, read-out: Inhibition ratio (%) against α2c-adrenoceptor binding
Numbers only here, please. The scale is %.

Can you look up the measured inhibition at 0.1 µM of Nc1ncc(CN2CCN(c3ncccn3)CC2)c2nc(-c3ccco3)nn12 for me?
70

Which inhibition at 0.1 µM value belongs to Nc1ncc(CN2CCc3ccccc3C2)c2nc(-c3ccco3)nn12 ?
96

Value lookup for inhibition at 0.1 µM; key = C1=C(CN2CCc3ccccc3C2)c2nc(-c3ccco3)nn2C2=NCCN12
74

Which value of inhibition at 0.1 µM has been reported for Nc1ncc(CNCC2COc3ccccc3O2)c2nc(-c3ccco3)nn12 (stereo not drawn) in the records?
96

Given Nc1ncc(CN2CCN(c3ccccc3)CC2)c2nc(-c3cccnc3)nn12 , state its recorded inhibition at 0.1 µM.
75

Please give the measured inhibition at 0.1 µM for this compound: CSc1ncc(CN2CCc3ccccc3C2)c2nc(-c3ccco3)nn12
58

Which inhibition at 0.1 µM value is on record for CN(Cc1ccccc1)c1ncc(CN2CCN(c3ccccc3F)CC2)c2nc(-c3ccco3)nn12 ?
91

So what does the record say about inhibition at 0.1 µM for N#Cc1ccccc1N1CCN(Cc2cnc(N)n3nc(-c4ccco4)nc23)CC1 ?
65

Which inhibition at 0.1 µM is reported for this compound? Nc1ncc(CN2CCN(c3ccccc3Cl)CC2)c2nc(-c3ccco3)nn12
91

----------
- measured.target: α2C-adrenoceptor (Homo sapiens, UniProt P18825)
- Sequence (P18825 1-462): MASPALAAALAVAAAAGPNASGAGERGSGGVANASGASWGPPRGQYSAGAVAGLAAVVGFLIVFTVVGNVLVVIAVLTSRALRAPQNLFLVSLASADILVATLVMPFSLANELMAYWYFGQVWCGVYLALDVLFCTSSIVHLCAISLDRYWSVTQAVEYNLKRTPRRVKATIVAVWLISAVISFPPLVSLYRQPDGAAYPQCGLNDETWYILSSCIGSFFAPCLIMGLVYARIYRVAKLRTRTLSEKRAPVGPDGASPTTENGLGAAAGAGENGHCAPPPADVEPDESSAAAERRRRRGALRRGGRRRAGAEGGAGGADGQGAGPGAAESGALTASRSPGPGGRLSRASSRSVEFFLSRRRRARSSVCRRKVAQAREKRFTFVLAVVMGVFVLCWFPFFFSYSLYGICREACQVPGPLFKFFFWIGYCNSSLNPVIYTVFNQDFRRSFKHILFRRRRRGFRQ
- test.method.notes: α2c-Adrenoceptor binding test (3H-MK-912 binding, HepG2 cell membrane fraction)
- Set-up: the membrane fraction of the cultured cells was used; endogenous in cells; host or cells: HepG2 (human hepatoma) cell membrane fraction
- measurement.parameters: 0.5 h, test compound 10^−7 mol/l, read-out: Inhibition ratio (%) against α2c-adrenoceptor binding
- Protocol: Adrenoceptor Binding Activity (α2c-Adrenoceptor Binding Test) This test was carried out according to the method of Schaak et al. [Journal of Pharmacological Experimental Therapeutics, Vol. 281, p. 983 (1997)] as slightly modified. […] The inhibition ratio of the test compound against the α2C-adrenoceptor binding (^3H-MK-912 binding) was calculated using the following equation. […] (Note) Amount of the total binding means the amount of radioactivity of ^3H-MK-912 bound in the absence of the test compound. […]
Please provide measured inhibition at 0.1 µM for the entries that follow.
Give just the numeric value; % need not be written.

Param readout= inhibition at 0.1 µM; system= α2C-adrenoceptor (Homo sapiens, UniProt P18825); entry= Cc1ccc2c(c1)CN(Cc1cnc(N)n3nc(-c4ccco4)nc13)CC2 ; returns value.
87

# value lookup — system α2C-adrenoceptor (Homo sapiens, UniProt P18825), readout inhibition at 0.1 µM, item COc1ccc2c(c1)CCN(Cc1cnc(N)n3nc(-c4ccco4)nc13)C2
86

Any idea what inhibition at 0.1 µM came out for COc1cc2c(cc1OC)CN(Cc1cnc(NCCCO)n3nc(-c4ccco4)nc13)CC2 on α2C-adrenoceptor (Homo sapiens, UniProt P18825)?
72

Look up inhibition at 0.1 µM with α2C-adrenoceptor (Homo sapiens, UniProt P18825) for this compound: Nc1ncc(CN2CCC(c3ccccc3)CC2)c2nc(-c3ccco3)nn12
83
